Reference source for all entries: patent US20190367619A1

- Assay Target: T1, human galectin-10-His (human)
- T1 construct: Whether the last M of the tag is the start Met of galectin-10 is not clear; also called human Gal10-HIS; humanGal10-His
- T1 chain: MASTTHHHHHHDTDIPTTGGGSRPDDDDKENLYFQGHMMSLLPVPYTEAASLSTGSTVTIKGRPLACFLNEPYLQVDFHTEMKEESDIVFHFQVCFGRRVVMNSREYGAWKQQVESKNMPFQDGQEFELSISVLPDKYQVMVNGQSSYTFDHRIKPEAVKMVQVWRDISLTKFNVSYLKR
- Method Description: ELISA, Gal10-His coated at 1 ug/mL, VHH titrated, anti-Myc-HRP
Below: a set of entries, each annotated with reported Bmax (OD values).
Express your answer in OD, writing the number without its unit.

Some solved cases for reference:
Binder	Bmax (OD values), OD
VHH clone 14E02 (VHH, Purified VHH-Myc-His from E. coli; not shown: Myc and His tags of the phagemid vector) VHH: QVQLVESGGGLAQAGGSLRLSCVASGRAAGTYSMAWFRQAPGKEREFVAAITWAGGYTYGADSEKGRFTISRDNAKNTVYLQMNSLKPEDTAVYSCAGGRLFTSQSSAYQYWGQGTQVTVSS	0.7
VHH clone 13E07 (VHH, Purified VHH-Myc-His from E. coli; not shown: Myc and His tags of the phagemid vector) VHH: ELQVVESGGGLVQAGDSLRLSCAVSGRTFSSYHMMWFRQAPGKEREFVAAIAWRGGTYCANSVKGRCTISRDNAKDTVYLQMNSLKPEDTAVYFCAASLRYVFDPSAMDYWGKGTLVTVSS	1.1
VHH clone 13B06 (VHH, Purified VHH-Myc-His from E. coli; not shown: Myc and His tags of the phagemid vector) VHH: QVQLVESGGGLVQAGGSLRLSCAASGRTFSTYSMAWFRQAPGKEREFVAAITRSGGNTYADSVKGRFTISRDNAKNTVTLQMNSLKPEDTAAYHCAAGGTYSFVPRSYNYWGQGTQVTVSS	1
VHH clone 13H07 (VHH, Purified VHH-Myc-His from E. coli; not shown: Myc and His tags of the phagemid vector) VHH: QLQLVESGGGLVQAGGSLRLSCVASGRTFSTYAMDWFRQAPGKEREFVAAISWHSAIYYADAVKGRFTISRDNGKNTMYLQMNNLKPEDTAVYFCAAALRYRFNPSAMEYWGKGTLVTVSS	1.5
VHH clone 13A05 (VHH, Purified VHH-Myc-His from E. coli; not shown: Myc and His tags of the phagemid vector) VHH: QVQLVESGGGLVQAGGSLRLSCAASSSSYSMSWFRQAPGKEREFVAIISWSGGTYYDDSVKGRFTVSRDNAKNTVYLQMNSLKPEDTAVYYCAAGTQFSFSYREYDYWGQGTQVTVSS	1.8

QUERY: For the binder shown here, VHH clone 13C04 (VHH, Purified VHH-Myc-His from E. coli; not shown: Myc and His tags of the phagemid vector) VHH: ELQVVESGGGLVQAGGSLRLSCAASGRTFSTYSMAWFRQAPGKEREFVAAITRSGGNTYADSVKGRFTISRDNAKNTVTLQMNSLKPEDTAAYHCAAGGTYSFVPRSYNYWGQGTQVTVSS , give the reported Bmax (OD values).
RESULT: 1.1

QUERY: For the binder shown here, VHH clone 14F10 (VHH, Purified VHH-Myc-His from E. coli; not shown: Myc and His tags of the phagemid vector) VHH: EVQLVESGGGLVQAGDSLRLSCAASGRTFSGYAVGWFRQAPGKEREFVTIISWNGGTHYADSVKGRFAISRDNAKNTVYLQMNNLKPEDTAVYYCAVSPKYYFSPETYNYWGQGTQVTVSS , give the reported Bmax (OD values).
RESULT: 0.5

QUERY: For the binder shown here, VHH clone 14E10 (VHH, Purified VHH-Myc-His from E. coli; not shown: Myc and His tags of the phagemid vector) VHH: ELQLVESGGGLVQAGGSLRLSCAASEGTFRPYAMGWFRQAPRKEREFVAVISLSGAYTYNVNAVKGRFTISRDNAKNTVYLQMNSLTPEDTAIYYCGASRTYYRTDESTYEYWGQGTQVTVSS , give the reported Bmax (OD values).
RESULT: 0.5
